# testSystem: chimeric BTLA of humanised-BTLA mice (human extracellular region, murine transmembrane and signaling … (human; mouse, UniProt Q7TSA3 184-306, limits assumed); also: test concentration or dose not given here
# Sequence (Q7TSA3 other isoform, or with tags, fused parts or gaps mutant limits assumed): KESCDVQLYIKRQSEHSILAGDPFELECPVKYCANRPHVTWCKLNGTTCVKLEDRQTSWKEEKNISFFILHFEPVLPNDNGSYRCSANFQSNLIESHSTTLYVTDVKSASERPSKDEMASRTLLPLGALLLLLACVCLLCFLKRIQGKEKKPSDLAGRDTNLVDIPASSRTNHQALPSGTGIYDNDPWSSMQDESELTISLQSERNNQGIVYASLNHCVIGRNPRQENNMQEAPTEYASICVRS
# assayComment: cell-based or functional assay
AntiCD3/CD28 (CD69+ CD4 T cells) repeat 1 values by entry
observable: AntiCD3/CD28 (CD69+ CD4 T cells) repeat 1

binder	observedResult
8C4 (antibody, IgG1, V domains shown, mIgG1) VH: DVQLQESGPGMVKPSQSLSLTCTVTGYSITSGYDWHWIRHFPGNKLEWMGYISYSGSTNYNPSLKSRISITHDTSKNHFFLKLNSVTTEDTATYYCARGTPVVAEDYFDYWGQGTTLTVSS VL: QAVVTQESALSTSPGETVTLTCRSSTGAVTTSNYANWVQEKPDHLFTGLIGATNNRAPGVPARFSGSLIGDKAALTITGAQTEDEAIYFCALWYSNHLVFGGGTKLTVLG	29 % inhibition
15B6 (antibody, IgG1, V domains shown) VH: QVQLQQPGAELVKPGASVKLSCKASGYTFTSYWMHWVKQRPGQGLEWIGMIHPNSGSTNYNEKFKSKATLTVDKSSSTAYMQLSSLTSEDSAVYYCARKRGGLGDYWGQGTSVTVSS VL: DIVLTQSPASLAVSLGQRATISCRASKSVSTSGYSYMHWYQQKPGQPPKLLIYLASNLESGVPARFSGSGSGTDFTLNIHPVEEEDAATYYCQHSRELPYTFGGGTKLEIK	13 % inhibition
11.5.1 D265A (antibody, V domains shown) VH: EVQLQESGPSLVKPSQTLSLTCSVTGDSITSAYWNWIRKFPGNKLEYMGYISYSGSTYFNPSLKSRISITRNTSKNQYYLQLNSVTTEDTATYYCARSHYYGYYFDYWGHGTTLTVSS VL: DIVLTQSPASLAVSLGQRATISCRASETIDSYGDSLMHWYQQKAGQPPKLLIYRASNLESGIPARFSGSGSRTDFTLTINPVEADDVATYYCQQTDEDPYTFGGGTKLEIK	-47 % inhibition
4B1 (antibody, IgG1, V domains shown, mIgG1) VH: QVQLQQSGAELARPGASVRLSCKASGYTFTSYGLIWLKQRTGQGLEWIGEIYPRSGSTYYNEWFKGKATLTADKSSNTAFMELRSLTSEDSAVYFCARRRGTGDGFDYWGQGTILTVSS VL: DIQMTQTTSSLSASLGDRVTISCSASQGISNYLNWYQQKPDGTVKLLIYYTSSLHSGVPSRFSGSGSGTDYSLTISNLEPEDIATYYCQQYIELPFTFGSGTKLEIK	47 % inhibition

Reference source: patent US20230235058A1
